molecular target: Cytochrome P450 2C19 (Homo sapiens, UniProt P33261); experiment: Percent inhibition of formation of metabolic intermediate complex between Cytochrome P450 and compound 1a (30 uM) on extent, following incubation at compound concentration of 30 uM; assay type: ADME, Oryctolagus cuniculus; conditions: rabbit, probe compound 1a (30 uM)
Sequence (P33261 whole entry): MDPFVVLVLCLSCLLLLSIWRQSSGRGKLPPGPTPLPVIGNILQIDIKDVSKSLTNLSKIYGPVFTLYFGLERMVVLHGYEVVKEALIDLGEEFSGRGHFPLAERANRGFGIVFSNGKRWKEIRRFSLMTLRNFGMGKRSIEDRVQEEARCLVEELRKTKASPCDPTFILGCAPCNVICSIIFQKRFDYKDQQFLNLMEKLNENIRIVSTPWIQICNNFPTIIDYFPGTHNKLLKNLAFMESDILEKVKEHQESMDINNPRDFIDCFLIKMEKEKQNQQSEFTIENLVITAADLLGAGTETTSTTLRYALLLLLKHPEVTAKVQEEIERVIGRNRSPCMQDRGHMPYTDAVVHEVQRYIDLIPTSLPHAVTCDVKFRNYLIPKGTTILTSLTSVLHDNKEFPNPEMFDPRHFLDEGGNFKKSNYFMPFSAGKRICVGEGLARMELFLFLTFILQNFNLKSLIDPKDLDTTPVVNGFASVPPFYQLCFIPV
measure: inhibition at 30 µM (%)

1) COc1cc(C[C@@H](C)NO)c(OC)cc1C.COc1cc(C[C@H](C)NO)c(OC)cc1C 73

----------
target: Cytochrome P450 2C19 (Homo sapiens, UniProt P33261); assay: Percent inhibition of formation of metabolic intermediate complex between Cytochrome P450 and compound 1ab (30 uM) on extent, following incubation at compound concentration of 20 uM; type: ADME, Oryctolagus cuniculus; conditions: rabbit, probe compound 1ab (30 uM)
measure: inhibition at 20 µM (%)

1. COc1cc(C[C@@H](C)NO)c(OC)cc1C.COc1cc(C[C@H](C)NO)c(OC)cc1C 12

----------
test: Initial rates of formation of metabolic intermediate Cytochrome P-450 at compound concentration of 30 uM; format: ADME
Label Criterion met when Rate >= 20; otherwise Criterion not met.

1) COc1cc(C[C@@H](C)NO)c(OC)cc1C.COc1cc(C[C@H](C)NO)c(OC)cc1C Criterion met
2) COc1cc(C[C@@H](C)N)c(OC)cc1C Criterion not met
3) COc1cc(C[C@@H](C)N)c(OC)cc1C.COc1cc(C[C@H](C)N)c(OC)cc1C Criterion not met
4) COc1cc(C[C@H](C)N)c(OC)cc1C Criterion not met
5) COc1cc(C[C@H](C)NO)c(OC)cc1C Criterion met
6) COc1cc(C[C@@H](C)NO)c(OC)cc1C Criterion met
